Data credit: PubChem BioAssay AID1053197

Biological target: Sialate O-acetylesterase (Homo sapiens) (UniProt Q9HAT2)
Sequence (Q9HAT2 whole entry, looked up): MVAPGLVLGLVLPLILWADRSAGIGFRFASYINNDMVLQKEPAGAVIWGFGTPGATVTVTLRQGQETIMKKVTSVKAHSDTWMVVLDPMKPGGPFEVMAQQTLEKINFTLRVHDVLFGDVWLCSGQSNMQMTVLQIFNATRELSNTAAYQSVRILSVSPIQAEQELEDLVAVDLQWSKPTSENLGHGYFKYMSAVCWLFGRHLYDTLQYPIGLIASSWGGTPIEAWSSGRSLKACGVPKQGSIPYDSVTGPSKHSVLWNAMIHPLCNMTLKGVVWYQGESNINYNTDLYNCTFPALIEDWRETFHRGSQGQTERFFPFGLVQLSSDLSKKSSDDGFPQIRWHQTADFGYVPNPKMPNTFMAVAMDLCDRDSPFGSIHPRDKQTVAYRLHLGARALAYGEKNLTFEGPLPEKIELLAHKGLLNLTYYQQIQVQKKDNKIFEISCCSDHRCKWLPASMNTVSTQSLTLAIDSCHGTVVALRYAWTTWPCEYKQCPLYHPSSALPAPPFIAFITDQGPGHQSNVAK
Experiment: blockers of sialate O-acetylesterase activity-probe labeling – biochemical, fluorescence polarization, FP-Rh probe, 1536-well HTS, primary screen (AID 1053197);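 also: 0% = plate median of compound wells and 100% = probe without SIAE protein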
Details: SIAE FP-Rh probe binding, at 9.66 µM, active compounds read high
About 2,600 (0.7%) of roughly 370,000 compounds were called active. For the sample, actives were picked, then their nearest neighbours and some compounds at random.
Readout kind: inhibition (%)
Write the answer as a number in %, unit excluded.

Query string: Any idea what its inhibition is? The compound is CCOC(=O)C1=C(C)N=C2c3ccccc3C(=O)C2C1c1ccc(Br)cc1 (stereo not given)
Result string: 18

Query string: Please look up its inhibition: CCOC(=O)C1=C(C)NC(SC)=NC1c1ccccc1 (stereo not given)
Result string: 5.58

Query string: Request the reported inhibition associated with Cc1ccc(/C=N/NC(=S)NC2CCCCC2)o1
Result string: 8.46

Query string: What value of inhibition has been recorded for this entry: C[C@@H]1CN([C@@H](C)CO)C(=O)c2cccc(NC(=O)Nc3cccc4ccccc34)c2O[C@H]1CN(C)S(=O)(=O)c1ccccc1F
Result string: -1.21

Query string: # input compound: Cc1ccc(/C=N/NC(=O)Cn2ccc(C(F)(F)F)n2)o1 ; wanted: its inhibition
Result string: 2.98

###

Molecular target: Sialate O-acetylesterase (Homo sapiens)
Experiment: blockers of sialate O-acetylesterase activity-probe labeling – biochemical, fluorescence polarization, FP-Rh probe, 1536-well HTS, primary screen (AID 1053197);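 also: 0% = plate median of compound wells and 100% = probe without SIAE protein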
Details: SIAE FP-Rh probe binding, at 9.66 µM, active compounds read high
The whole screen tested about 370,000 compounds, of which about 2,600 (0.7%) were called active. This excerpt belongs to a sample that is enriched for actives.
Readout kind: inhibition (%)
Express your answer in %, writing the number without its unit.

Query string: # lookup: inhibition of O=C(Nc1cccc(Cl)c1N1CCOCC1)c1cccnc1
Result string: -7.61

Query string: Returns the measured inhibition for the input compound. Input: O=C(Nc1cccc(Cl)c1)OC1CC2CC1[C@H]1CCCCN1[C@H]2Cc1ccccc1 (some centres not stated)
Result string: -4.13

Query string: Find the recorded inhibition belonging to COC(=O)c1ccccc1SC1CC(=O)N(c2cccc(C)c2)C1=O (configuration not stated) and report it.
Result string: -0.8

Query string: Fill in: inhibition of NS(=O)(=O)c1ccc(NC(=O)COC(=O)c2c3c(nc4ccccc24)/C(=C\c2ccc4c(c2)OCO4)CCC3)cc1 is ___
Result string: 43.9

Query string: Given COc1ccc(CSc2nnc(-c3cccc(C)c3)n2C)cc1 , state its recorded inhibition.
Result string: 4.99

Query string: // returns reported inhibition for input O=C(c1cccnc1)N1CCN(S(=O)(=O)c2cccs2)CC1
Result string: 4.01

Query string: If you can, please state the reported inhibition value of Cc1ccc(C(=O)C2CCN(CC(=O)NCCC(C)C)CC2)cc1 .
Result string: 4.25

Query string: Look up inhibition for this compound: CCn1c(CSc2ncccn2)nnc1SCC(=O)N1c2ccccc2CC1C (configuration not stated)
Result string: 6.44

Query string: Item COCCN(C(=O)c1ccco1)c1nnc(-c2ccc(OC)cc2)s1 has what recorded inhibition?
Result string: -0.46

Query string: So what's the measured inhibition for this one? O=C1CC[C@@]23CCCN2C(=O)CCC[C@H]3[C@H]1Cc1ccccc1
Result string: 4.29

Query string: Any idea what its inhibition is? The compound is N#CCC[C@H]1CC[C@]2(CCCN(Cc3ccc(Cl)cc3)C2)O1
Result string: 1.15

Query string: Can you share its inhibition? I mean this compound: COc1ccccc1C(=O)NC1CCCCN(C(C)C)C1=O (configuration not stated)
Result string: 0.76

Query string: Which measured inhibition value corresponds to O=C(COC(=O)c1c(Cl)cccc1Cl)Nc1cccc(S(=O)(=O)NC2=NCCCCC2)c1 ?
Result string: -8.81

Query string: What does the record list as inhibition for COC(CNC(=O)[C@H](Cc1ccccc1)NC1(C(=O)NC2CCCCC2)CCCCC1)OC ?
Result string: 8.17

Query string: Report inhibition for CCOc1ccc(Oc2c(Cl)cnn(-c3ccc(C)cc3)c2=O)cc1 please.
Result string: -1.82

Query string: What value of measured inhibition is listed for CC1CC(C)CN(C(=O)CSc2nnc(CSc3ncccn3)n2C)C1 (configuration not stated) ?
Result string: -4.27

Query string: I have this compound here, COc1ccc(/C=N/NC(=O)c2ccncc2)cc1CN1CCCc2ccccc21 , and I need its recorded inhibition.
Result string: 18.8

Query string: Which inhibition is reported for this compound? CC(=O)CSc1nnc(CSc2ncccn2)n1C1CCCCC1
Result string: 23.7

Query string: Data request, read-out inhibition, for C=CCN1C(=O)[C@@H](CC(=O)N2CCN(C(=O)c3ccco3)CC2)[C@]2(C(=O)OC)CCCCC=C12
Result string: 2.59

Query string: Look up inhibition: COc1ccccc1CCC(=O)NNC(=O)c1ccncc1
Result string: -7.13

Query string: Data request, read-out inhibition, for Cc1ccc(Cn2cc(CN3[C@@H](C)COc4cc(Br)ccc4S3(=O)=O)nn2)cc1
Result string: -0.41

Query string: Need inhibition of CCc1ccc(/C=N/NC(=O)c2nnn(-c3nonc3N)c2CN2CCc3ccccc32)cc1 , thanks.
Result string: -0.3
